# Assay Procedure: Sample hygroscopicity test: H2O content before and after 24 hours at 100% humidity
# Type: physicochemical
# Run Parameters: before the test; Fischer titration
Catalogue of Initial H2O content in the sample values
Write down the numeric answer in % and omit the unit.

[Q] Report measured Initial H2O content in the sample; entry is C[N+](C)(C)NCCC(=O)O.O.O.O=C([O-])CC(O)(CC(=O)[O-])C(=O)[O-].[Mg+2]
[A] 9.45

[Q] Report measured Initial H2O content in the sample; entry is C[N+](C)(C)NCCC(=O)O.NC(CC(=O)O)C(=O)[O-].O.O [Meldonium L-(+)-aspartate (1:1; ×2H2O)]
[A] 12.5

[Q] Report measured Initial H2O content in the sample; entry is C[N+](C)(C)NCCC(=O)[O-] [Meldonium orotate (1:1)]
[A] 0.3919

[Q] Report measured Initial H2O content in the sample; entry is C[N+](C)(C)NCCC(=O)[O-].O=C(O)C=CC(=O)O [Meldonium fumarate (1:1)]
[A] 0.18

[Q] Report measured Initial H2O content in the sample; entry is C[N+](C)(C)NCCC(=O)[O-].O.O.O=C([O-])CCC(=O)[O-].[Mg+2]
[A] 10.1215

[Q] Report measured Initial H2O content in the sample; entry is C[N+](C)(C)NCCC(=O)O.O=C([O-])C(Cl)Cl [Meldonium dichloroacetate (1:1)]
[A] 1.17

[Q] Report measured Initial H2O content in the sample; entry is C[N+](C)(C)NCCC(=O)[O-].C[N+](C)(C)NCCC(=O)[O-].O=C(O)C=CC(=O)O [Meldonium fumarate (2:1)]
[A] 1.5136

[Q] Report measured Initial H2O content in the sample; entry is C[N+](C)(C)NCCC(=O)[O-].C[N+](C)(C)NCCC(=O)[O-].O=C(O)C=CC(=O)O [Meldonium maleate (2:1)]
[A] 1.3595

[Q] Report measured Initial H2O content in the sample; entry is C[N+](C)(C)NCCC(=O)O.O=C([O-])C(=O)O [Meldonium oxalate (1:1)]
[A] 0.1661

[Q] Report measured Initial H2O content in the sample; entry is C[N+](C)(C)NCCC(=O)O.O=P([O-])(O)O [Meldonium phosphate (1:1)]
[A] 0.0762

[Q] Report measured Initial H2O content in the sample; entry is C[N+](C)(C)NCCC(=O)O.O.O=C([O-])c1cc2ccccc2c(Cc2c(O)c(C(=O)O)cc3ccccc23)c1O [Meldonium pamoate (1:1; ×H2O)]
[A] 1.71

[Q] Report measured Initial H2O content in the sample; entry is C[N+](C)(C)NCCC(=O)[O-].O=C(O)C(O)C(O)C(O)C(O)C(=O)O (centres unmarked) [Meldonium mucate (galactarate; 1:1)]
[A] 1.98

[Q] Report measured Initial H2O content in the sample; entry is C[N+](C)(C)NCCC(=O)O.O=S(=O)([O-])O [Meldonium sulfate (1:1)]
[A] 1.4189
